Values from ChEMBL document CHEMBL1132344

species: Oryctolagus cuniculus; test: in vitro inhibitory activity on soybean lipoxygenase-induced lipid peroxidations of rabbit low-density lipoprotein (LDL) at 0.5 uM dosage; format: functional
quantity.name: LDL oxidation

Prompt: May I ask what LDL oxidation has been recorded for CN(CCCN1C(=S)CSC1c1cc(C(C)(C)C)c(O)c(C(C)(C)C)c1)CCOc1ccc2c(c1)OCO2 (configuration not stated) ?
Response: 22.8%

Prompt: What value of LDL oxidation has been reported for the following compound? CN(CCCN1C(=O)CSC1c1cc(C(C)(C)C)c(O)c(C(C)(C)C)c1)CCOc1ccc2c(c1)OCO2 (single isomer, unassigned; (+))
Response: 13.5%

Prompt: // query LDL oxidation value for entry CN(CCCN1C(=O)CSC1c1cc(C(C)(C)C)c(O)c(C(C)(C)C)c1)CCOc1ccc2c(c1)OCO2 (single isomer, unassigned; (-))
Response: 16.4%

Prompt: Can you look up the measured LDL oxidation of COc1ccc([C@@H]2Sc3ccccc3N(CCN(C)C)C(=O)[C@@H]2OC(C)=O)cc1 for me?
Response: 109%

Prompt: Give the measured LDL oxidation of CN(CCCOc1ccc2c(c1)OCO2)CCCN1C(=O)CSC1c1cc(C(C)(C)C)c(O)c(C(C)(C)C)c1 (configuration not stated) .
Response: 16.4%

Prompt: Quick one: LDL oxidation for COc1c(C(C)(C)C)cc(C2SCC(=O)N2CCCN(C)CCOc2ccc3c(c2)OCO3)cc1C(C)(C)C (configuration not stated) ?
Response: 91.6%

Prompt: LDL oxidation lookup needed for CCN(CCCN1C(=O)CSC1c1cc(C(C)(C)C)c(O)c(C(C)(C)C)c1)CCOc1ccc2c(c1)OCO2 (configuration not stated) , thanks.
Response: 16.8%

###

species on record: Oryctolagus cuniculus; assay: in vitro inhibitory activity on soybean lipoxygenase-induced lipid peroxidations of rabbit low-density lipoprotein (LDL) at 5 uM dosage.; format: functional, organism-based
quantity.name: LDL oxidation (%)
The response must be a number in % with no trailing unit.

Prompt: Bench note: what LDL oxidation did CN(CCCOc1ccc2c(c1)OCO2)CCCN1C(=O)CSC1c1cc(C(C)(C)C)c(O)c(C(C)(C)C)c1 (centres undefined) show?
Response: 3.9

Prompt: If you can, please state the reported LDL oxidation value of CN(CCCCCN1C(=O)CSC1c1cc(C(C)(C)C)c(O)c(C(C)(C)C)c1)CCOc1ccc2c(c1)OCO2 (centres undefined) .
Response: 5.9

Prompt: Which LDL oxidation is listed for COc1ccc([C@@H]2Sc3ccccc3N(CCN(C)C)C(=O)[C@@H]2OC(C)=O)cc1 [DILTIAZEM] ?
Response: 111

Prompt: Item CCN(CCCN1C(=O)CSC1c1cc(C(C)(C)C)c(O)c(C(C)(C)C)c1)CCOc1ccc2c(c1)OCO2 (centres undefined) has what recorded LDL oxidation?
Response: 6.4

###

organism: Rattus norvegicus; experiment: Compound was tested for [Ca2+] overload inhibitory activity in the veratridine-induced [Ca2+] overload model of rat cardiac myocytes.; type: functional, organism-based
Kindly supply the reported IC50 values for the records listed here.
Please state the value followed by its unit.

Prompt: I am curious: what IC50 value has been reported for CN(CCCN1C(=O)CSC1c1cc(C(C)(C)C)c(O)c(C(C)(C)C)c1)CCOc1ccc2c(c1)OCO2 (single isomer, unassigned; (+)) ?
Response: 320 nM

Prompt: Quick one: IC50 of CN(CCCN1C(=O)CSC1c1cc(C(C)(C)C)c(O)c(C(C)(C)C)c1)CCOc1ccc2c(c1)OCO2 (single isomer, unassigned; (-)) ?
Response: 320 nM
